Hello, the source for this data is ChEMBL document CHEMBL1145278, in case you need it.

# TARGET: RNA-directed RNA polymerase (Hepacivirus hominis)
# PROTOCOL DETAILS: Cytotoxic concentration against RNA dependent RNA polymerase Nonstructural protein 5B (HCV NS5B polymerase) in Hepatitis C virus
Give measured CC50 for each item. Keep answers brief.

Provide CC50 value for the following compound: O=C(Cc1ccc(C(F)(F)F)cc1)N/C(=C\c1ccc(Oc2ccccc2Br)cc1)C(=O)O
18 µM

// Input: O=C(O)/C(=C/c1ccc(Oc2ccccc2Br)cc1)NC(=O)c1cccc(F)c1 . Output its CC50 only.
> 100 µM

Provide measured CC50 value, entry: CONC(=O)/C(=C/c1ccc(Oc2ccccc2Br)cc1)NC(=O)c1ccccc1
22 µM

Note CC50 for the compound shown: O=C(O)/C(=C/c1ccc(Oc2ccccc2Br)cc1)NC(=O)c1ccccc1
> 100 µM

State its CC50: O=C(Nc1ccccc1)/C(=C/c1ccc(Oc2ccccc2Br)cc1)NC(=O)c1ccccc1
> 50 µM

Supply recorded CC50 for O=C(Nc1cccc(O)c1)/C(=C/c1ccc(Oc2ccccc2Br)cc1)NC(=O)c1ccccc1 here.
25 µM

State, in one line, measured CC50 of O=C(CCC1CCCC1)N/C(=C\c1ccc(Oc2ccccc2C(F)(F)F)cc1)C(=O)O
> 100 µM

Write down CC50 measured for item O=C(O)CNC(=O)/C(=C/c1ccc(Oc2ccccc2Br)cc1)NC(=O)c1ccccc1
> 50 µM

Return reported CC50. Input compound: O=C(Nc1ccccc1C(=O)O)/C(=C/c1ccc(Oc2ccccc2Br)cc1)NC(=O)c1ccccc1
> 50 µM

Report measured CC50; entry is O=C(Cc1ccc(I)cc1)N/C(=C\c1ccc(Oc2ccccc2Br)cc1)C(=O)O
> 100 µM

# return recorded CC50 for entry Cc1ccc(CCC(=O)N/C(=C\c2ccc(Oc3ccccc3Br)cc2)C(=O)O)cc1
> 100 µM

Report CC50, nothing else, for this compound: Cc1ccc(C(=O)N/C(=C\c2ccc(Oc3ccccc3Br)cc2)C(=O)O)cc1
> 100 µM

Give the value of CC50 reported for the following: O=C(CCc1ccc(C(F)(F)F)cc1)N/C(=C\c1ccc(Oc2ccccc2Br)cc1)C(=O)O
> 100 µM

For the compound O=C(CCC1CCCC1)N/C(=C\c1ccc(Oc2ccc(F)cc2Br)cc1)C(=O)O , report CC50.
> 100 µM

Look up and state reported CC50 for O=C(Nc1ccc(O)cc1)/C(=C/c1ccc(Oc2ccccc2Br)cc1)NC(=O)c1ccccc1
22 µM

Fill in reported CC50 for this entry: O=C(NCc1ccccc1)/C(=C/c1ccc(Oc2ccccc2Br)cc1)NC(=O)c1ccccc1
> 50 µM

Tell me measured CC50 for Nc1ccc(Oc2ccc(/C=C(\NC(=O)CCC3CCCC3)C(=O)O)cc2)c(C(F)(F)F)c1 please.
> 50 µM

Annotate the compound O=C(O)/C(=C/c1ccc(Oc2ccccc2Br)cc1)NC(=O)c1ccccc1O with its measured CC50.
> 100 µM

Give a short answer stating reported CC50 for NNC(=O)/C(=C/c1ccc(Oc2ccccc2Br)cc1)NC(=O)c1ccccc1 .
> 50 µM
